Data provenance: patent US9540323B2

subject_of_test: cloned human P2Y1 receptors (Homo sapiens (Human), UniProt P47900)
Sequence (P47900 whole entry): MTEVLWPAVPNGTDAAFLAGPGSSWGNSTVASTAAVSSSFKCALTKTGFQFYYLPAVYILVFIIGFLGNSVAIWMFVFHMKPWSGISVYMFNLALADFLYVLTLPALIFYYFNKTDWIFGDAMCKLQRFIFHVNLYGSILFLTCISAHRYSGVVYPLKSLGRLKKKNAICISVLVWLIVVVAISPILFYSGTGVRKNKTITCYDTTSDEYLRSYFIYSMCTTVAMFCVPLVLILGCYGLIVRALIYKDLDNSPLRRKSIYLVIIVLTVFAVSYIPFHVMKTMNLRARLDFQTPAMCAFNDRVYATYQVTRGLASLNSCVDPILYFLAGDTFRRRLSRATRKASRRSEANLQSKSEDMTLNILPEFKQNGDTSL
experimental_details: Binding Assay B - Scintillation Proximity Assay (SPA) for P2Y1 binding, [33P] 2MeS-ADP
stated_conditions: SPA, 0.3 nM [33P] 2MeS-ADP, Cheng-Prusoff; read-out: P2Y1 Ki (nM) using binding assay B
# note: boundary value 20 nM maps to Condition not met; Ki below it maps to Condition met

* CC1(C)CN(c2ccccc2NC(=O)Nc2nc3ccc(Cl)cc3s2)c2c(O)ccc(-c3ccc(F)cc3)c21 | Condition met
* CC(C)(C)CN1CCC(c2ccc(NC(=O)Nc3ccccc3N3CC(C)(C)c4c(-c5ccc(Cl)cc5)c(F)cc(O)c43)cc2)CC1 | Condition met
* CC1(C)CN(c2ccccc2NC(=O)Nc2csc(Cl)n2)c2c(O)ccc(-c3nc4cc(Cl)ccc4s3)c21 | Condition not met
* CC1(C)CN(c2ccccc2NC(=O)Nc2nc3ccc(F)cc3s2)c2c(O)ccc(-c3nc4ccc(Cl)cc4o3)c21 | Condition not met
* CC1(C)CN(c2ccccc2NC(=O)Nc2csc(Cl)n2)c2c(O)ccc(Cl)c21 | Condition met
* CC1(C)CN(c2ccc(F)cc2NC(=O)Nc2nc3ccc(F)cc3s2)c2c(O)ccc(C(F)(F)F)c21 | Condition not met
* CC1(C)CN(c2ccc(F)cc2NC(=O)Nc2ccc(F)cc2F)c2c(O)ccc(C(F)(F)F)c21 | Condition met
* CC1(C)CN(c2ccccc2NC(=O)Nc2ccc(OC(F)(F)F)cc2)c2c(O)cc(F)c(-c3ncc(F)cn3)c21 | Condition met
* CCC1(CC)CN(c2ccccc2NC(=O)Nc2ccc(C3CCN(CC(C)C)CC3)cc2)c2c(O)ccc(Cl)c21 | Condition met
* Cc1cc(-c2c(F)cc(O)c3c2C(C)(C)CN3c2ccccc2NC(=O)Nc2ccc(OC(F)(F)F)cc2)ccn1 | Condition met
* CC(C)n1nc(-c2c(F)cc(O)c3c2C(C)(C)CN3c2ccccc2NC(=O)Nc2ccc(OC(F)(F)F)cc2)cc1C(F)(F)F | Condition met
* CC(C)c1nc(-c2c(F)cc(O)c3c2C(C)(C)CN3c2ccccc2NC(=O)Nc2ccc(OC(F)(F)F)cc2)co1 | Condition met
* CC1(C)CN(c2ccccc2NC(=O)Nc2ccc(OC(F)(F)F)cc2)c2ccccc21 [Comparator 2, reference compound] | Condition met
* CC1(C)CN(c2ccccc2NC(=O)Nc2ccc(OC(F)(F)F)cc2)c2c(O)ccc(-c3nc4cc(Cl)ccc4s3)c21 | Condition not met
* CC1(C)CN(c2ccccc2NC(=O)Nc2ccc(OC(F)(F)F)cc2)c2c(O)ccc(-c3cnccn3)c21 | Condition met
* CC1(C)CN(c2ccccc2NC(=O)Nc2ccc(OC(F)(F)F)cc2)c2c(O)ccc(-c3ccccc3)c21 | Condition met
* CC1(C)CN(c2ccccc2NC(=O)Nc2nc3ccc(F)cc3s2)c2c(O)cc(F)c(-c3ccc(C(F)(F)F)cn3)c21 | Condition not met
* CC1(C)CN(c2ccccc2NC(=O)Nc2nc3ccc(F)nc3s2)c2c(O)cc(F)c(-c3nc4ccc(F)cc4s3)c21 | Condition met
* CCC1(CC)CN(c2ccccc2NC(=O)Nc2ccc(OC(F)(F)F)cc2)c2c(O)ccc(C(F)(F)F)c21 | Condition met
* CC1(C)CN(c2ccccc2NC(=O)Nc2nc3ccc(Cl)cc3s2)c2c(O)c(F)cc(Br)c21 | Condition not met
* CCN1CCc2nc(NC(=O)Nc3ccccc3N3CC(C)(C)c4c(C(F)(F)F)ccc(O)c43)sc2C1 | Condition met
* CC(C)(C)c1ccc(NC(=O)Nc2ccccc2N2CC(C)(C)c3ccccc32)cc1 [Comparator 1, reference compound] | Condition met
* CCC1(CC)CN(c2ccccc2NC(=O)Nc2ccc(C3CCN(CC(C)(C)C)CC3)cc2)c2c(O)ccc(C(F)(F)F)c21 | Condition met
* CC1(C)CN(c2ccccc2NC(=O)Nc2ccc(OC(F)(F)F)cc2)c2c(O)cc(F)c(-c3ccc(C(F)(F)F)cc3)c21 [Example 216] | Condition not met
* CC(C)CN1CCCC1c1ccc(NC(=O)Nc2ccccc2N2CC(C)(C)c3c(-c4ccc(F)cc4)ccc(O)c32)cc1 (stereo not shown) | Condition met
* CC1(C)CN(c2ccccc2NC(=O)Nc2ccc(OC(F)(F)F)cc2)c2c(O)c(F)cc(-c3ccc(F)cc3)c21 | Condition met
* CC1(C)CN(c2ccccc2NC(=O)Nc2ccc(OC(F)(F)F)cc2)c2c(O)cc(F)c(-c3nc4ccc(F)cc4s3)c21 | Condition met
* CC1(C)CN(c2ccccc2NC(=O)Nc2nc3ccc(Cl)nc3s2)c2c(O)cc(F)c(-c3ccc(Cl)cc3)c21 | Condition not met
